biological target: Serotonin 3 (5-HT3) receptor (Rattus norvegicus) (UniProt P35563+Q9JJ16); assay: Antagonistic activity against 5-hydroxytryptamine 3 receptor as inhibition of 5-HT-induced bradycardia (von Bezold-jarisch reflex) in anesthetized rat; type: functional
Documented ID50 across a set of compounds
readout-kind: ID50 (mg/kg)

[[record]]
compound = "CN1C2CCC1CC(n1cnc3cc(N)c(Cl)cc3c1=O)C2 (stereo not given)"
test_target = "Serotonin 3 (5-HT3) receptor (Rattus norvegicus) (UniProt P35563+Q9JJ16)"
readout_kind = "ID50"
readout_units = "mg/kg"
comparison_symbol = "="
endpoint_value = 0.33

[[record]]
compound = "CN1C2CCC1CC(n1nnc3ccccc3c1=O)C2 (stereo not given)"
test_target = "Serotonin 3 (5-HT3) receptor (Rattus norvegicus) (UniProt P35563+Q9JJ16)"
readout_kind = "ID50"
readout_units = "mg/kg"
comparison_symbol = ">"
endpoint_value = 0.05

[[record]]
compound = "CN1C2CCC1CC(n1nnc3cc([N+](=O)[O-])c(Cl)cc3c1=O)C2 (stereo not given)"
test_target = "Serotonin 3 (5-HT3) receptor (Rattus norvegicus) (UniProt P35563+Q9JJ16)"
readout_kind = "ID50"
readout_units = "mg/kg"
comparison_symbol = "="
endpoint_value = 0.013

[[record]]
compound = "COc1ccc(Cl)cc1C(=O)NC1CC2CCC(C1)N2C (stereo not given)"
test_target = "Serotonin 3 (5-HT3) receptor (Rattus norvegicus) (UniProt P35563+Q9JJ16)"
readout_kind = "ID50"
readout_units = "mg/kg"
comparison_symbol = "="
endpoint_value = 0.015

[[record]]
compound = "Nc1cc2nnn(C3CN4CCC3CC4)c(=O)c2cc1Cl (stereo not given)"
test_target = "Serotonin 3 (5-HT3) receptor (Rattus norvegicus) (UniProt P35563+Q9JJ16)"
readout_kind = "ID50"
readout_units = "mg/kg"
comparison_symbol = "="
endpoint_value = 0.0036


----------
biological target: Serotonin 3 (5-HT3) receptor (Rattus norvegicus) (UniProt P35563+Q9JJ16); assay: Antagonistic activity against 5-hydroxytryptamine 3 receptor as inhibition of 5-HT-induced bradycardia (von Bezold-jarisch reflex) in anesthetized rat; format: functional
readout-kind: ID50 (mg/kg)

[[record]]
molecule = "CN1[C@@H]2CC[C@H]1C[C@@H](OC(=O)c1cc(Cl)cc(Cl)c1)C2"
endpoint_value = 0.035

[[record]]
molecule = "CN1[C@@H]2CC[C@H]1C[C@@H](OC(=O)c1c[nH]c3ccccc13)C2"
endpoint_value = 0.0014

[[record]]
molecule = "COc1cc(N)ccc1C(=O)NC1CC2CCC(C1)N2C (stereo unspecified)"
endpoint_value = 0.016

[[record]]
molecule = "CN1C2CCC1CC(NC(=O)c1ccc(N)c(Cl)c1)C2 (stereo unspecified)"
endpoint_value = 0.036

[[record]]
molecule = "CN1C2CCC1CC(n1nnc3ccc(Cl)cc3c1=O)C2 (stereo unspecified)"
endpoint_value = 0.012

[[record]]
molecule = "COc1cc(N)c(Cl)cc1C(=O)NC1CC2CCC(C1)N2C (stereo unspecified)"
endpoint_value = 0.0008

